B1: TPR t1 (parent)
chain: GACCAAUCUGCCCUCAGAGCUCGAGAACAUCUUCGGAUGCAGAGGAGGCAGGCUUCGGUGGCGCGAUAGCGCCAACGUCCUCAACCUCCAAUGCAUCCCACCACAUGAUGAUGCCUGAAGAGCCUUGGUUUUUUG

Variants of: B1
Experiment: polymerase ribozyme fitness, log enrichment relative to wild type (log ratio); higher = more active; in vitro selection for triplet polymerase activity
MEASURED_QUANTITY: polymerase ribozyme fitness (log ratio)
Answers are plain numbers.

Observe how each entry below is paired with its result.
• GACCAAUCUGCCCUCAGAGCUCGAGUACAUCUUCGGAUGUAGAGGAGGCAGGCUUCGGUGGCGCGAUAGCGCCAACGUCCUCAACCUCCAAUGCAUCCCACCACAUGAUGAUGCCUGAAGAGCCUUGGUUUUUUG [A26U C40U] = -4.02
• GACCAAUCUGCCCUCAGAGCUCGAGAACAUCUUCGGAUGCAGCGGAGGCAGGCUUCGGUGGUGCGAUAGCGCCAACGUCCUCAACCGGCCAUGCAUCCCACCACAUGAUGAUGCCUGAAGAGCCUUCGUUUCUUG [A43C C62U U87G C88G A90C G127C U132C] = -3.94

Kindly consider the entry below.
Task item: Consider the variant GACCAAUCUGCCGUCAGACCUCGAGAACAUCUUCGGAUGCAGAGGAGGCAGGCUUCGGUGUCGCGAUAGCGCCAACGUCCUCAACCUUCAAUGCAUCCCACCACAUGAUGAUGCCUGAAGAGCCUUGGUUUUUUG [C13G G19C G61U C88U] and give its measured polymerase ribozyme fitness (log ratio).
Reply: -4.01

All values here come from the RNAGym collection of RNA variant scans (doi:10.1073/pnas.2313332121).
